assay method text: in vitro
experimental context: rat, gh3-tre-luc cells, AC50 (uM) modified / 1000, Tox21_110001=Tox21_111815; viability, 1 nM T3 present, 24 h

# compound, CC50 at 24 h
data = [
    ("CC(C)C(Br)C(=O)NC(N)=O (stereo not shown)", "> 50 µM"),
]

---

assay method text: in vitro
experimental context: rat, gh3-tre-luc cells, AC50 (uM) modified / 1000, Tox21_110001=Tox21_200144; viability, 1 nM T3 present, 24 h

# compound, CC50 at 24 h
data = [
    ("Cc1ccc(N=C=O)cc1N=C=O [Toluene diisocyanate]", "> 90 µM"),
]
